Tested on: umbrella sedge (Cyperus difformis)
Experiment: Test B flooded paddy test
Type: in vivo
Details: Flood (flooded paddy test), 62 g ai/ha; scale 0 to 100, 0 is no effect, 100 is complete control; 13 to 15 days
assay endpoint: Plant response rating, Sedge, Umbrella
Lab note: record just the number, no unit beside it.

[
  {
    "compound": "O=C1CCCC(O)=C1C(=O)c1cnc(-c2ccccc2)n(-c2ccc(F)cc2)c1=O [Compound 24]",
    "observed value": 0
  },
  {
    "compound": "O=C1CCCC([O-])=C1C(=O)c1cnc(-c2ccccc2)n(-c2ccc(Cl)cc2)c1=O.[K+] [Compound 13]",
    "observed value": 0
  },
  {
    "compound": "Cc1cccc(C)c1-n1c(-c2ccccc2)ncc(C(=O)C2=C(O)CCCC2=O)c1=O [Compound 31]",
    "observed value": 60
  }
]

Please examine the following record next.
## Task I would be grateful if you could share the reported Plant response rating, Sedge, Umbrella for Cc1ccc(-n2c(-c3cccc(Cl)c3)ncc(C(=O)C3=C(O)CCCC3=O)c2=O)cc1 [Compound 39] .
## Result 90
